The entries below are paired with their reported inhibition in vivo at 10 mg/kg.
tested on: Mus musculus; assay: Antidepressant activity in Mus musculus Kunming (mouse) assessed as reduction in duration of immobility at 10 mg/kg, ip measured after 30 min by forced swim test; type: functional; conditions: 0.5 h, route intraperitoneal

| Compound | inhibition in vivo at 10 mg/kg [%] |
| --- | --- |
| O=C(/C=C/c1ccccc1)NCCCO | 23.4 |
| CCCCCCCCCCCCCCCCCC(=O)NCCCO | 14.1 |
| CCCCCCCCCCCCCCCC(=O)NCCO | 6.25 |
| CCCCCCCCCCCCCCCC(=O)NCCCO [N-(3-HYDROXYPROPYL)PALMITAMIDE] | 22.2 |
| O=C(/C=C/c1ccccc1)NCCO [IDROCILAMIDE] | 25.9 |
| CCCCCCCCCCCCCCCCCC(=O)N(CC)CC [N,N-DIETHYLSTEARAMIDE] | 18.4 |
| CCCCCCCCCCCCCCCC(=O)N(CCO)CCO | 26.3 |
| CN(C)C(=O)/C=C/c1ccccc1 [N,N-DIMETHYLCINNAMAMIDE] | 20 |
| CCCCCCCCCCCCCCCCCC(=O)N(C)CCO | 22 |
